- target-system: CSF1R (Homo sapiens, UniProt P07333)
- Sequence (P07333 20-972): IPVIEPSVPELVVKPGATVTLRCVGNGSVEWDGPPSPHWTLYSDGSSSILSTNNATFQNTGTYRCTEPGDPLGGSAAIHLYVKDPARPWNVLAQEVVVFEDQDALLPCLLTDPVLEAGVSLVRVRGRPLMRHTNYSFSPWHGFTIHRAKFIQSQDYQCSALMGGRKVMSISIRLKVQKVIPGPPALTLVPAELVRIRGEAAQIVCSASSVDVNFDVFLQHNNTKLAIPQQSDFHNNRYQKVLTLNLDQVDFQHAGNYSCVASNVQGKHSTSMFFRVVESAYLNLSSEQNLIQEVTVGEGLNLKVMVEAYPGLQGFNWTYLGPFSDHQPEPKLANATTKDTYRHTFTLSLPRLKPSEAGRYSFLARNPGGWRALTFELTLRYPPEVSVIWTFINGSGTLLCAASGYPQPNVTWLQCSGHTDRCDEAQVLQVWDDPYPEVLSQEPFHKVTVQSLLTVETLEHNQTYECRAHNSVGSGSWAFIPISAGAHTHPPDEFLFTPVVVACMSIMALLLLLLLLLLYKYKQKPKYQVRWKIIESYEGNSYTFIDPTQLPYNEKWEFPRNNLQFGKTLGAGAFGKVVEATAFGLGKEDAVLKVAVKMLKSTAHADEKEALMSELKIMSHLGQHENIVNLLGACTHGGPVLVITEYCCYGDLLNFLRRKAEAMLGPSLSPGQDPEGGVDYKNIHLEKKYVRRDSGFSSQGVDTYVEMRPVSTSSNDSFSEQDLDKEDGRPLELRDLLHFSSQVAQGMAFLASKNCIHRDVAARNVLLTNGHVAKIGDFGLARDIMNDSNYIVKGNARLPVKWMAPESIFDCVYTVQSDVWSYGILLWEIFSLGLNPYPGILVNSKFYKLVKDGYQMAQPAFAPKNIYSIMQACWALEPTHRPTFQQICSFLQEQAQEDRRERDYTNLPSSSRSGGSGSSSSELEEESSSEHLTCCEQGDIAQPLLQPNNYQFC
pKd: −log10 of the molar value. Counter-ions that a name gives are not always drawn.
Form field: pKd (one value per entry).

compound | target-system | value-observed
CC(C)(C)c1cc(NC(=O)Nc2ccc(-c3cn4c(n3)sc3cc(CCC(=O)NCCN5CCCCC5)ccc34)cc2)no1 [Compound C10, hydrochloride] | CSF1R (Homo sapiens, UniProt P07333) | 7.00 to 8.00
CC(C)(C)c1cc(NC(=O)Nc2ccc(-c3cn4c(n3)sc3cc(CCN5CCOCC5)ccc34)cc2)no1 [Compound D5, hydrochloride] | CSF1R (Homo sapiens, UniProt P07333) | > 8.00

Next compound, pKd to be filled in.
Q) Provide value of pKd for this record tested with CSF1R (Homo sapiens, UniProt P07333): CCOC(=O)CCc1ccc2c(c1)sc1nc(-c3ccc(NC(=O)Nc4cc(C(C)(C)C)on4)cc3)cn12 [Compound C3]
A) < 6.00
